test_system: canine IL-4RA (construct not given) (canine)
experimental_protocol: SPR, IL-4RA immobilised, periplasmic Fab
metric: Improvement over parental
Remember to follow the number with its unit.

FJ2246MP05G01 (Fab, V domains shown) VH: EVQLVESGGDLVKPGGSLRLSCVASGFPFRDFAMTWVRQAPGKGLQWVSLISGSGGKTYYADAVKGRFTISRDNAKNTLYLQMNSLRAEDTAVYYCAVDRLTKTIRPQYYGLWVWGQGTLVTVSS VL: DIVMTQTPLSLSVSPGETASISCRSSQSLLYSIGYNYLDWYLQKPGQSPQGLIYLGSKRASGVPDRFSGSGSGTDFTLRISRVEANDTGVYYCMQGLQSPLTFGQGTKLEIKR: 2 fold
FJ2246MP06E01 (Fab, V domains shown) VH: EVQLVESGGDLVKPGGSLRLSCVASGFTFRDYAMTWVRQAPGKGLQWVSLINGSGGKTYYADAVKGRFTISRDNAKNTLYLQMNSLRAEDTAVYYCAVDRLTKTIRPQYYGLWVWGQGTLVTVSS VL: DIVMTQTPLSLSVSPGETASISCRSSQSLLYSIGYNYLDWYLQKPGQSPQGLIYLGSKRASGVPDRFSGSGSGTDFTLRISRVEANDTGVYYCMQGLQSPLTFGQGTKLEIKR: 2.4 fold
FJ2246MP05A04 (Fab, V domains shown) VH: EVQLVESGGDLVKPGGSLRLSCVASGLPFRDYAMTWVRQAPGKGLQWVSLISGSGGKTYYADAVKGRFTISRDNAKNTLYLQMNSLRAEDTAVYYCAVDRLTKTIRPQYYGLWVWGQGTLVTVSS VL: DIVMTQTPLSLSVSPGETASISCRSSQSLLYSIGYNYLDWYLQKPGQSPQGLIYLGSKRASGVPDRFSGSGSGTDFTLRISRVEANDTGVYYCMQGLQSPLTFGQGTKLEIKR: 2 fold
FJ2246MP06F11 (Fab, V domains shown) VH: EVQLVESGGDLVKPGGSLRLSCVASGFTFRDYAMTWVRQAPGKGLQWVSLINGDGSKTYYADAVKGRFTISRDNAKNTLYLQMNSLRAEDTAVYYCAVDRLTKTIRPQYYGLWVWGQGTLVTVSS VL: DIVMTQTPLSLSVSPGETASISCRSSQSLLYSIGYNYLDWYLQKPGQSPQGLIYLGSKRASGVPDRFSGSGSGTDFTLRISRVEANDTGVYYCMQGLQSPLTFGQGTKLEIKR: 2 fold
FJ2246MP07E01 (Fab, V domains shown) VH: EVQLVESGGDLVKPGGSLRLSCVASGFTFRDYAMTWVRQAPGKGLQWVSLISGSGGKTYYADAVKGRFTISRDNAKNTLYLQMNSLRAEDTAVYYCAVDRLTKTIRPQYYGLWSWGQGTLVTVSS VL: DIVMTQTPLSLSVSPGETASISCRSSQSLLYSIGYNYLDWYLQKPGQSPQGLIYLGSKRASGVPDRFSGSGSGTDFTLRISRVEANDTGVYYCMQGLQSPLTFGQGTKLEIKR: 2.1 fold
FJ2246MP06C01 (Fab, V domains shown) VH: EVQLVESGGDLVKPGGSLRLSCVASGFTFRDYAMTWVRQAPGKGLQWVSLINGNGGKTYYADAVKGRFTISRDNAKNTLYLQMNSLRAEDTAVYYCAVDRLTKTIRPQYYGLWVWGQGTLVTVSS VL: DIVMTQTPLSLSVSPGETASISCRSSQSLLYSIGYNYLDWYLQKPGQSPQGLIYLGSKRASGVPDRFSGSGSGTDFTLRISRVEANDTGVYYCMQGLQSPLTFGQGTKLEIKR: 2.3 fold
FJ2246MP10D01 (Fab, V domains shown) VH: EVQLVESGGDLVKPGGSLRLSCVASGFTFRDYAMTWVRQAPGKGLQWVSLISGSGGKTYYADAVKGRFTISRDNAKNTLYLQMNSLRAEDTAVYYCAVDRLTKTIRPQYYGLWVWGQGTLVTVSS VL: DIVMTQTPLSLSVSPGETASISCRSSQSLLYSIGYNYLDWYLQKPGQSPQGLIYLGSKRASGVPDRFSGSGSGTDFTLRISRVEADDTGVYYCMQGLQSPLSFGQGTKLEIK: 2 fold
FJ2246MP07A10 (Fab, V domains shown) VH: EVQLVESGGDLVKPGGSLRLSCVASGFTFRDYAMTWVRQAPGKGLQWVSLINGSGGKTYYADAVKGRFTISRDNAKNTLYLQMNSLRAEDTAVYYCAVDRLTKTVRPQYYGLWSWGQGTLVTVSS VL: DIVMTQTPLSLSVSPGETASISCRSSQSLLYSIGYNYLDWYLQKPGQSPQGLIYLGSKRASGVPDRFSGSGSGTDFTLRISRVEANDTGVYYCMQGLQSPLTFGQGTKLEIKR: 3.4 fold
FJ2246MP10H03 (Fab, V domains shown) VH: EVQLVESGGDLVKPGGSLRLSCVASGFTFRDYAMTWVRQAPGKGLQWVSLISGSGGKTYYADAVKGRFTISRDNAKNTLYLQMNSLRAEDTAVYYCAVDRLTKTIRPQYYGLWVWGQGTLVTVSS VL: DIVMTQTPLSLSVSPGETASISCRSSQSLLYSIGYNYLDWYLQKPGQSPQGLIYLGSKRASGVPDRFSGSGSGTDFTLRISRVEAEDTGVYYCMQGLRSPLSFGQGTKLEIK: 2.2 fold

For the next question, use this binder.
Task: Given the binder FJ2246MP05F12 (Fab, V domains shown) VH: EVQLVESGGDLVKPGGSLRLSCVASGFPFRDYAMTWVRQAPGKGLQWVSLINGSGGKTYYADAVKGRFTISRDNAKNTLYLQMNSLRAEDTAVYYCAVDRLTKTIRPQYYGLWVWGQGTLVTVSS VL: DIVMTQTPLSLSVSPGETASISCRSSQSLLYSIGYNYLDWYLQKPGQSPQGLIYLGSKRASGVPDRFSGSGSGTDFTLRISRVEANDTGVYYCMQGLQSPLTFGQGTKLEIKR , what is its reported Improvement over parental?
Result: 3.2 fold
